Assay: Cyclic voltammetry of menadione derivatives
Format: physicochemical
Settings: second wave; irr: irreversible reduction
Measured Ipc2/Ipa2 of individual entries
OUTCOME MEASURE: Ipc2/Ipa2

STRUCTURE SMILES | MEASUREMENT
CC1=C(COc2ccc(C#N)cc2)C(=O)c2ccccc2C1=O | 2
COc1ccc(OCC2=C(C)C(=O)c3ccccc3C2=O)cc1C(F)(F)F | 1.75

---

Assay: Cyclic voltammetry of menadione derivatives
Type: physicochemical
Conditions: DMSO, 0.1 M n-Bu4NPF6, v = 200 mV s^−1, reference KCl(3 M)/Ag/AgCl; second wave
Measured Epc2 of individual entries

STRUCTURE SMILES | Epc2
CC1=C(COc2ccc(C(=O)O)cc2)C(=O)c2ccccc2C1=O | −1.265 V
COc1ccc(OCC2=C(C)C(=O)c3ccccc3C2=O)cc1C(F)(F)F | −1.132 V
CC1=C(COc2ccc(Br)cc2)C(=O)c2ccccc2C1=O | −1.158 V
CC1=C(COc2ccc(C#N)cc2)C(=O)c2ccccc2C1=O | −1.154 V
